From: PubChem BioAssay (NCI)

- Test system: MDA-MB-435 melanoma
- assay.method.text: NCI-60 one-dose screen, 48 h (100 = growth as untreated, 0 = no growth, -100 = all killed)
- test.settings: 10 µM unless noted
- Experimental: Growth inhibition of the MDA-MB-435 human Melanoma tumor cell line is measured as a screen for anti-cancer activity. Cells are grown in 96 well plates and exposed to the test compound for 48 hours. Compounds are tested at a single concentration, which is 10^-5 M for most compounds. The reported endpoint is percent growth (GI% or GIPRCNT), where numbers from 0 - 100% represent growth inhibition, and numbers from -100% - 0 represent cell death. […]
This is part of a sample that, as a whole, favours compounds with a hit. Of some 83,000 tested, about 20% had one in any assay.
readout.type: growth (%)
Unit % implied. Number only.

# compound, readout.type, unit.descriptor, measurement
data = [
    ("CCC1S/C(=N\\N=C(/C)c2ccc[nH]2)N(c2ccccc2)C1=O (centres undefined)", "growth", "%", 104),
    ("O=C(Nc1ccc(S(=O)(=O)NC2CCCCCC2)cc1)C(c1ccccc1)S(=O)(=O)c1ccc(F)cc1 (centres undefined)", "growth", "%", -17),
    ("CCCCn1c(=O)c(/C=C/C(=O)/C=C/c2ccc(O)c(OC)c2)cc2ccc(Cl)cc21", "growth", "%", 2.81),
    ("COC(=O)c1nc(-c2ccccc2)oc1S(=O)(=O)n1nc(C)cc1N", "growth", "%", 79.6),
    ("O=C(NCc1ccccc1)c1ccc2c(c1)NC(=O)[C@@H]1CCCN21", "growth", "%", 99.6),
]

Now for another entry.
// growth lookup, compound = O=C(CCCCCCCCC(=O)Nc1cccc(C2=NCCN2)c1)Nc1cccc(C2=NCCN2)c1 , result: 99.2

###

- System: SNB-19 CNS
- assay.method.text: NCI-60 one-dose screen, 48 h (100 = growth as untreated, 0 = no growth, -100 = all killed)
- test.settings: 10 µM unless noted
The panel holds about 83,000 compounds, 20% with a hit somewhere; the sample as a whole holds those more often.
readout.type: growth (%)
# unit: % | format: bare number

Worked examples, 8 compounds total:
# compound, growth (%)
rows = [
    ("Cc1ccc(C(=O)/C(=C/c2ccc([N+](=O)[O-])cc2)S(=O)Cc2ccccc2)cc1 (centres undefined)", 34.8),
    ("C=C(C)[C@@H]1CC[C@]2(C(=O)O)CC[C@]3(C)[C@H](CC[C@@H]4[C@@]5(C)C[C@@H](CC#Cc6ccc(Cl)cc6)C(=O)C(C)(C)[C@@H]5CC[C@]43C)[C@@H]12", 54),
    ("COCCOC(=O)COc1ccc(OC)cc1", 97.4),
    ("O=S(=O)(O)c1ccc(N=NSc2ccc3ccccc3c2)cc1", 105),
    ("COc1ccc(-c2[nH]c3ccc(OC)cc3c2C=C(C#N)C#N)cc1", 76.2),
    ("Nc1cc(N)nc(SCC(=O)O)n1", 100),
    ("CCCS(=O)(=O)Nc1ccc(F)c(C(=O)c2c[nH]c3ncc(-c4ccc(OCCCC5CCCCN5)nc4)cc23)c1F (centres undefined)", 77.5),
    ("CNCc1cccc2c1OCCOCCOCCN(CCN1CCOCC1)S(=O)(=O)c1ccc(cc1)-c1cnc(N)c(n1)C(=O)N2", 76.3),
]

# context switch: different compound, same growth
// field: growth; key: CC(C)(C)c1ccc2oc(=O)n(SC(Cl)(Cl)Cl)c2c1 ; value = 112
